target: RAF proto-oncogene serine/threonine-protein kinase (Homo sapiens) (UniProt P04049); test: Inhibition of c-RAF (unknown origin) using [33P]ATP by […] assay
Sequence (P04049 whole entry): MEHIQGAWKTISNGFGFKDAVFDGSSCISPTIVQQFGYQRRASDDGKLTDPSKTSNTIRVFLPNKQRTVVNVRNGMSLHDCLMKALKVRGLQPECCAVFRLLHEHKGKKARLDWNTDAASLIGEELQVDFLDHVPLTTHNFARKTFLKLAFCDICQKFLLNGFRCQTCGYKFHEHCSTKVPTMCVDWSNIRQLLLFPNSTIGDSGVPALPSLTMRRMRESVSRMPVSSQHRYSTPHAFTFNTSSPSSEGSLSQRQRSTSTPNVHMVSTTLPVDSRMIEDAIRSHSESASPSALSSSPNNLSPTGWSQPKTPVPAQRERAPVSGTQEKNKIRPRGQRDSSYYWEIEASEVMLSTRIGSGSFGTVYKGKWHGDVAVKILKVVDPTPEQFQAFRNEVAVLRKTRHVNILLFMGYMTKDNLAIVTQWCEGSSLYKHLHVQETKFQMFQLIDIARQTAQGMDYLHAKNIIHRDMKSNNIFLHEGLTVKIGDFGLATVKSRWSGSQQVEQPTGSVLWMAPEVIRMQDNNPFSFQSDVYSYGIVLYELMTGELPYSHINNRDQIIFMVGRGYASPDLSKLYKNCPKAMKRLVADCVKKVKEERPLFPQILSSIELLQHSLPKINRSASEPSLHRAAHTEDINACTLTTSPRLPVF
observation.type: IC50 (nM)

Field: example entries. Status: answers known.
>>> print(df.to_string())
                           molecular_string                           target_of_assay  observation_type  unit_spec   val
0  CC1(C)C(=O)Nc2cc3nccc(Oc4ccc(NC(=O)Nc5cccc(F)c5)cc4F)c3cc21  RAF proto-oncogene serine/threonine-protein kinase (Homo sapiens) (UniProt P04049)              IC50         nM  25.2
1  CNC(=O)c1cc(Oc2ccc(NC(=O)Nc3ccc(Cl)c(C(F)(F)F)c3)cc2)ccn1  RAF proto-oncogene serine/threonine-protein kinase (Homo sapiens) (UniProt P04049)              IC50         nM  28.5
2  CC1(C)C(=O)Nc2cc3nccc(Oc4ccc(NC(=O)Nc5cccc(F)c5)cc4)c3cc21  RAF proto-oncogene serine/threonine-protein kinase (Homo sapiens) (UniProt P04049)              IC50         nM  37.3
3  CC1(C)C(=O)Nc2cc3nccc(Oc4ccc(NC(=O)Nc5cccc(F)c5)cc4Cl)c3cc21  RAF proto-oncogene serine/threonine-protein kinase (Homo sapiens) (UniProt P04049)              IC50         nM  22.1

a = CC1(C)C(=O)Nc2cc3nccc(Oc4ccc(NC(=O)Nc5ccc(F)c(C(F)(F)F)c5)cc4F)c3cc21
b = Cc1cc(NC(=O)Nc2ccc(Oc3ccnc4cc5c(cc34)C(C)(C)C(=O)N5)c(F)c2)no1
c = Cc1cccc(C)c1NC(=O)Nc1ccc(Oc2ccnc3cc4c(cc23)C(C)(C)C(=O)N4)cc1
Rank by IC50 (largest to smallest). Your reply should list the labels following the order given in the request. c, b, a
(c: 52.1 nM, b: 27.2 nM, a: 15.9 nM)
